Data origin, for the record: patent US20220233684A1

# maps each entry to its IC50
MEASURED_ON: PD-1/PD-L1 (Homo sapiens, UniProt Q9NZQ7)
Sequence (Q9NZQ7 19-238 limits assumed): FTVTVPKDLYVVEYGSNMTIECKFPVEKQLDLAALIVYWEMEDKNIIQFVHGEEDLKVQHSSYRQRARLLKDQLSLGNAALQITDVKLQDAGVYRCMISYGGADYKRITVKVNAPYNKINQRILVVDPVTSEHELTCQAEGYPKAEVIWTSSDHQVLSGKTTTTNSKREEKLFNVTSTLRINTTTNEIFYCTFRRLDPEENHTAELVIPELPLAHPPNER
PROCEDURE_TEXT: PD-1/PD-L1 biochemical protein-protein interaction assay (ALPHA)
ASSAY_CONTEXT: 5 nM His tagged PD-L1, 5 nM biotinylated PD-1, 2 hours at 25° C.; read-out: ALPHA-LISA IC50
State the value, then name its unit.

STRUCTURE: CCc1cc(CN[C@H](CO)C(=O)O)c(OCc2cccc(C#N)c2)cc1OCc1cccn(-c2ccc3c(c2)OCCO3)c1=O
MEASURED_ON: PD-1/PD-L1 (Homo sapiens, UniProt Q9NZQ7)
IC50: 2700 nM
--
STRUCTURE: N#Cc1cccc(COc2cc(OCc3cccn(-c4ccc5c(c4)OCCO5)c3=O)c(Cl)cc2CNC[C@@H]2CCC(=O)N2)c1
MEASURED_ON: PD-1/PD-L1 (Homo sapiens, UniProt Q9NZQ7)
IC50: 360 nM
--
STRUCTURE: Cc1cc(CN[C@H](CO)C(=O)O)c(OCc2cccnc2)cc1OCc1cccn(-c2ccc3c(c2)OCCO3)c1=O
MEASURED_ON: PD-1/PD-L1 (Homo sapiens, UniProt Q9NZQ7)
IC50: 1000 nM
--
STRUCTURE: Cc1cc(CN[C@H](CO)C(=O)O)c(OCc2cccc(Cl)c2)cc1OCc1cccn(-c2ccc3c(c2)OCCO3)c1=O
MEASURED_ON: PD-1/PD-L1 (Homo sapiens, UniProt Q9NZQ7)
IC50: 3000 nM
--
STRUCTURE: N#Cc1cccc(COc2cc(OCc3cccn(-c4ccc5c(c4)OCCO5)c3=O)c(Cl)cc2CN[C@H](CO)C(=O)O)c1
MEASURED_ON: PD-1/PD-L1 (Homo sapiens, UniProt Q9NZQ7)
IC50: 300 nM

Consider the molecule Cc1cc(CN[C@@H](CO)C(=O)O)c(OCc2cccc(C#N)c2)cc1OCc1cccn(-c2ccc3c(c2)OCCO3)c1=O and give its measured IC50.
1200 nM

Let us now turn to Cc1cc(CN[C@@H](C)C(=O)O)c(OCc2cccc(C#N)c2)cc1OCc1cccn(-c2ccc3c(c2)OCCO3)c1=O
3900 nM

Let us now turn to Cc1cc(CN2C[C@H](O)C[C@@H]2C(=O)O)c(OCc2cccc(C#N)c2)cc1OCc1cccn(-c2ccc3c(c2)OCCO3)c1=O
3400 nM

Let us now turn to N#Cc1cncc(COc2cc(OCc3cccn(-c4ccc5c(c4)OCCO5)c3=O)c(Cl)cc2CN[C@H](CO)C(=O)O)c1
320 nM

Let us now turn to Cc1cc(CN(C)[C@@H](CO)C(=O)O)c(OCc2cccc(C#N)c2)cc1OCc1cccn(-c2ccc3c(c2)OCCO3)c1=O
1600 nM

Let us now turn to CC(C)c1cc(CN[C@H](CO)C(=O)O)c(OCc2cccc(C#N)c2)cc1OCc1cccn(-c2ccc3c(c2)OCCO3)c1=O
3600 nM

====

# maps each entry to its IC50
MEASURED_ON: PD-1/PD-L1 (Homo sapiens, UniProt Q9NZQ7)
PROCEDURE_TEXT: PD-1/PD-L1 biochemical protein-protein interaction assay (ALPHA)
ASSAY_CONTEXT: 5 nM His tagged PD-L1, 5 nM biotinylated PD-1, 2 hours at 25° C.; read-out: ALPHA-LISA IC50
# output: bare number, implied unit nM

STRUCTURE: O=C(O)[C@@H](CO)NCc1cc(Cl)c(OCc2cccn(-c3ccc4c(c3)OCCO4)c2=O)cc1OCc1cncc(-n2ccnn2)c1
MEASUREMENT_TYPE: IC50
UNIT_ANNOTATION: nM
NUMERIC_VALUE: 550

Consider the compound Cc1cc(CN[C@H](CO)C(=O)O)c(OCc2cccc(C#N)c2)cc1OCc1cccn(-c2ccc3c(c2)OCCO3)c1=O and give its measured IC50.
1100

Let us now turn to Cc1cc(CN[C@](C)(CO)C(=O)O)c(OCc2cccc(C#N)c2)cc1OCc1cccn(-c2ccc3c(c2)OCCO3)c1=O
1200
